- Test system: Escherichia coli TOP10
- EXPERIMENT_DESCRIPTION: shrunken log2 fold change of peptide-encoding DNA abundance (4.5 h post-induction vs induction); higher = less antimicrobial activity (less host growth inhibition)
- CONDITION_PARAMETERS: time post-induction: 4.5 h; library: site-saturation at positions 5, 18, 19, 20

{"RESIDUE_CODES": "RRIRLRPPRLPRPRPRPRCWPRP", "shrunken log2 fold change": 0.371}
{"RESIDUE_CODES": "RRIRVRPPRLPRPRPRPFGKPRP", "shrunken log2 fold change": -0.151}
{"RESIDUE_CODES": "RRIRHRPPRLPRPRPRPMKKPRP", "shrunken log2 fold change": -0.0202}
{"RESIDUE_CODES": "RRIRMRPPRLPRPRPRPSHAPRP", "shrunken log2 fold change": 0.282}
{"RESIDUE_CODES": "RRIRYRPPRLPRPRPRPRIHPRP", "shrunken log2 fold change": -0.287}
{"RESIDUE_CODES": "RRIRERPPRLPRPRPRPIYDPRP", "shrunken log2 fold change": -0.137}
{"RESIDUE_CODES": "RRIRPRPPRLPRPRPRPWTHPRP", "shrunken log2 fold change": -0.0188}
{"RESIDUE_CODES": "RRIRSRPPRLPRPRPRPELHPRP", "shrunken log2 fold change": 0.249}

====

- Test system: Escherichia coli TOP10;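 note: peptides expressed intracellularly from a pBAD plasmid library in pooled LB shake-flask culture, induced with 0.3% L-arabinose, DNA abundance read by NGS, three biological replicates, DESeq2 with apeglm shrinkage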
- EXPERIMENT_DESCRIPTION: shrunken log2 fold change of peptide-encoding DNA abundance (4.5 h post-induction vs induction); higher = less antimicrobial activity (less host growth inhibition)
- CONDITION_PARAMETERS: time post-induction: 4.5 h; library: site-saturation at positions 5, 18, 19, 20
Note to self: class = bucket of shrunken log2 fold change, per low interval (below -0.1), middle interval (-0.1 to below 0.2), high interval (0.2 or more)

{"RESIDUE_CODES": "RRIRDRPPRLPRPRPRPEINPRP", "EXPERIMENTAL_SYSTEM": "Escherichia coli TOP10", "ANSWER_LABEL": "high interval"}
{"RESIDUE_CODES": "RRIRMRPPRLPRPRPRPGLCPRP", "EXPERIMENTAL_SYSTEM": "Escherichia coli TOP10", "ANSWER_LABEL": "high interval"}
{"RESIDUE_CODES": "RRIRERPPRLPRPRPRPRGPPRP", "EXPERIMENTAL_SYSTEM": "Escherichia coli TOP10", "ANSWER_LABEL": "high interval"}
{"RESIDUE_CODES": "RRIRFRPPRLPRPRPRPHSRPRP", "EXPERIMENTAL_SYSTEM": "Escherichia coli TOP10", "ANSWER_LABEL": "low interval"}
{"RESIDUE_CODES": "RRIRFRPPRLPRPRPRPPNIPRP", "EXPERIMENTAL_SYSTEM": "Escherichia coli TOP10", "ANSWER_LABEL": "low interval"}
{"RESIDUE_CODES": "RRIRKRPPRLPRPRPRPKTWPRP", "EXPERIMENTAL_SYSTEM": "Escherichia coli TOP10", "ANSWER_LABEL": "high interval"}
{"RESIDUE_CODES": "RRIRDRPPRLPRPRPRPGSIPRP", "EXPERIMENTAL_SYSTEM": "Escherichia coli TOP10", "ANSWER_LABEL": "middle interval"}
{"RESIDUE_CODES": "RRIRSRPPRLPRPRPRPLEAPRP", "EXPERIMENTAL_SYSTEM": "Escherichia coli TOP10", "ANSWER_LABEL": "middle interval"}
{"RESIDUE_CODES": "RRIRARPPRLPRPRPRPKITPRP", "EXPERIMENTAL_SYSTEM": "Escherichia coli TOP10", "ANSWER_LABEL": "middle interval"}
{"RESIDUE_CODES": "RRIRNRPPRLPRPRPRPSLFPRP", "EXPERIMENTAL_SYSTEM": "Escherichia coli TOP10", "ANSWER_LABEL": "low interval"}
{"RESIDUE_CODES": "RRIRIRPPRLPRPRPRPKRDPRP", "EXPERIMENTAL_SYSTEM": "Escherichia coli TOP10", "ANSWER_LABEL": "low interval"}
{"RESIDUE_CODES": "RRIRLRPPRLPRPRPRPFPPPRP", "EXPERIMENTAL_SYSTEM": "Escherichia coli TOP10", "ANSWER_LABEL": "middle interval"}
{"RESIDUE_CODES": "RRIRERPPRLPRPRPRPDKCPRP", "EXPERIMENTAL_SYSTEM": "Escherichia coli TOP10", "ANSWER_LABEL": "low interval"}
{"RESIDUE_CODES": "RRIRYRPPRLPRPRPRPQMDPRP", "EXPERIMENTAL_SYSTEM": "Escherichia coli TOP10", "ANSWER_LABEL": "low interval"}
